System: HCC 2998
measurement protocol: NCI tumour cell line growth inhibition, 48 h
Active and inactive are the calls of the source. No stated cut-off is given here; in the data, active = GI50 up to about 1.1 µM and inactive = higher.
Exercise: state measured GI50 for each of the compounds provided.

// query GI50 value for entry Cc1n[nH]c(=O)n1N1C(=O)CCCC1=O
> 100 µM (inactive)

// query GI50 value for entry CCC(C(=O)c1ccccc1)C(CCCC(=O)Nc1c(C)cccc1C)N=O (stereo unspecified)
> 100 µM (inactive)

// query GI50 value for entry C=C1CC(c2ccc(OCCCN3C(=O)c4ccccc4C3=O)cc2)OC1=O (stereo unspecified)
3.78 µM (inactive)

// query GI50 value for entry COc1ccc(-n2cnn3c(=O)c4cn[nH]c4nc23)cc1
> 10 µM (inactive)

// query GI50 value for entry COC(=O)/C=C/C1C(C(=O)OC)C2(C(=O)OC)CCC1(C(=O)OC)N2 (stereo unspecified)
> 100 µM (inactive)

// query GI50 value for entry CCOC(=O)C(NC(=O)Nc1ccc(Cl)cc1)(OC)C(F)(F)F (stereo unspecified)
7.45 µM (inactive)

* * *

System: SR
measurement protocol: NCI tumour cell line growth inhibition, 48 h
Activity calls are given as the source filed them. No stated cut-off is given here; in the data, active = GI50 up to about 1.1 µM and inactive = higher.
value type: GI50

// query GI50 value for entry COC(=O)/C=C(\C(=O)OC)c1cc(C)c2cc(C(C)C)ccc(C)c1-2
> 100 µM (inactive)

// query GI50 value for entry O=C(O)c1ccc(OCc2ccccc2)c(Cl)c1
> 100 µM (inactive)

// query GI50 value for entry CN(C(=O)Cc1ccccc1)n1cnn(CC(=O)OC(C)(C)C)c1=S
> 10 µM (inactive)

// query GI50 value for entry CC1(C)CC[C@]2(C)CC=C3[C@]4(C)CC[C@H]5C(C)(C)C(=O)CC[C@]5(C)[C@H]4CC[C@@]3(C)[C@H]2C1
> 100 µM (inactive)

// query GI50 value for entry CO/N=C1\CC(C)N2C(=O)C(C(C)C)NC(=O)C(NC(=O)c3c4nc5c(C(=O)NC6C(=O)NC(C(C)C)C(=O)N7C(C)CC(O)C7C(=O)N(C)CC(=O)N(C)C(C(C)C)C(=O)OC6C)ccc(C)c5oc-4c(C)c(=O)c3N)C(CO)OC(=O)C(C)N(C)C(=O)CN(C)C(=O)C12 (centres undefined)
0.0184 µM (active)

// query GI50 value for entry CCCCn1c(N)c(-c2nc3ccccc3o2)sc1=S
17.7 µM (inactive)

// query GI50 value for entry Oc1ccc(Cn2c(-c3ccc(O)c(O)c3)nc3ccccc32)cc1O
3.72 µM (inactive)

// query GI50 value for entry Cc1cc(S(=O)(=O)O)c(NC(=O)C(=O)Cc2cc(=O)oc3cc(O)ccc23)cc1Cl
> 100 µM (inactive)

// query GI50 value for entry COc1cc(/C=C2\CCC(C)c3c2nc(N)c(C#N)c3-c2cc(OC)c(OC)c(OC)c2)cc(OC)c1OC (centres undefined)
25.8 µM (inactive)

* * *

Test system: SN12C
measurement protocol: NCI tumour cell line growth inhibition, 48 h
Active and inactive are the calls of the source. No stated cut-off is given here; in the data, active = GI50 up to about 1.1 µM and inactive = higher.
Exercise: state measured GI50 for each of the molecules provided.

// query GI50 value for entry Cc1cc(NC(=O)NC(=O)c2ccccc2NC(=O)CN(C)C)ccc1Oc1ncc(Br)cn1
17.3 µM (inactive)

// query GI50 value for entry Cc1cc(C)nc(SCCc2cccc[n+]2C)n1
> 100 µM (inactive)

// query GI50 value for entry C[N+](C)(Cc1ccc(NC(=O)CCCC(=O)ON2C(=O)CCC2=O)cc1)c1ccccc1
< 0.01 µM (active)

// query GI50 value for entry c1ccc2c(c1)cc1n2CC2CN=NC12 (stereo not given)
> 100 µM (inactive)

// query GI50 value for entry Cn1cc(C(=O)c2ccccc2)cc(C(=O)c2ccccc2)c1=O
> 100 µM (inactive)

// query GI50 value for entry CCC(C(=O)c1ccccc1)C(CCCC(=O)Nc1c(C)cccc1C)N=O (stereo not given)
> 100 µM (inactive)

// query GI50 value for entry CC(C)Oc1c(C2(c3ccccc3O)SCCCS2)c(=O)c1=O
> 100 µM (inactive)

// query GI50 value for entry Cc1ccc(S(=O)(=O)N/N=C/c2c(O)ccc3ccccc23)cc1
31.1 µM (inactive)

// query GI50 value for entry C[C@H](C/C=C/C(C)(C)O)[C@H]1CC[C@@]2(C)[C@@H]3CC[C@H]4C(C)(C)[C@@H](O)CC[C@@]45C[C@@]35CC[C@]12C
13 µM (inactive)

// query GI50 value for entry CCN(CC)c1ccc2c(c1)Oc1ccc(N(C(C)=O)c3ccccc3)cc1C21OC(=O)c2ccccc21 (stereo not given)
> 100 µM (inactive)

// query GI50 value for entry Cc1nc(N)c(N2CCN(S(N)(=O)=O)CC2)c(O)n1
> 100 µM (inactive)

// query GI50 value for entry CCCCCC(=O)OC[n+]1cccc(-c2c(COC(=O)NC(C)C)c(COC(=O)NC(C)C)c3n2CCC3)c1
30.6 µM (inactive)

// query GI50 value for entry Cc1c(NC(=O)CSC(=S)N(C)C)c(=O)n(-c2ccccc2)n1C
> 100 µM (inactive)

// query GI50 value for entry CCCCn1c(N)c(-c2nc3ccccc3o2)sc1=S
22.1 µM (inactive)

// query GI50 value for entry CN1C(=O)C(=CNc2ccc(Cl)cc2Cl)C(=O)N(C)C1=O
> 100 µM (inactive)

// query GI50 value for entry CCCCCCCCCCC(C)CCCCCCC(=O)O (stereo not given)
> 100 µM (inactive)

// query GI50 value for entry COc1ccc(/C=C/c2cc(OC)c(OC)c(OC)c2)cc1O[Si](C)(C)C(C)(C)C
7.16 µM (inactive)

// query GI50 value for entry O=C(c1ccc(O)cc1)C1c2c3c(cc(O)c2C(c2ccc(O)cc2)C1c1cc(O)cc(O)c1)OC(c1ccc(O)cc1)C3c1cc2c(cc1O)OC(c1ccc(O)cc1)C2c1cc(O)cc(O)c1 (stereo not given)
> 12.5 µM (inactive)

// query GI50 value for entry CCOP(=O)(OCC)C1=NC=CC=CC1n1c(-c2ccccc2)nn(CC)c1=O (stereo not given)
> 100 µM (inactive)

// query GI50 value for entry C#Cc1c(C)c(/C=C/C(C)=C\C(=O)OC)n(C)c1C
> 100 µM (inactive)

* * *

Exercise: state measured GI50 for each of the molecules provided.
Tested on: K562
measurement protocol: NCI tumour cell line growth inhibition, 48 h
Active and inactive are the calls of the source. Cut-off read from the data, not from the text of the source: active = GI50 up to about 1.1 µM and inactive = higher.

Field: GI50 (K562). Entry: CCCCCCCCCCCCCC[S+](C)C
1.4 µM (inactive)

Field: GI50 (K562). Entry: CCOC(=O)/C(=C/c1ccc(C#N)cc1)N(CC)CC
> 100 µM (inactive)

Field: GI50 (K562). Entry: Cc1ccc(-c2c(C#N)c(-c3ccc([N+](=O)[O-])cc3)c(C#N)c(=O)n2NS(=O)(=O)c2ccccc2)cc1
39.3 µM (inactive)

Field: GI50 (K562). Entry: CN(C)S(=O)(=O)c1ccc2c(c1)/C(=C1/Nc3ccccc3C1=O)C(=O)N2
34.8 µM (inactive)

Field: GI50 (K562). Entry: CC(=O)OCC1OC(n2cc(F)c(=O)[nH]c2=O)C(NC(=O)OCc2ccccc2)C(OC(C)=O)C1OC(C)=O (stereo unspecified)
> 100 µM (inactive)

Field: GI50 (K562). Entry: O=C(O)CCCCCO
> 100 µM (inactive)

* * *

Exercise: state measured GI50 for each of the compounds provided.
Test system: SK-OV-3
measurement protocol: NCI tumour cell line growth inhibition, 48 h
Calls of active or inactive are those of the source. Cut-off read from the data, not from the text of the source: active = GI50 up to about 1.1 µM and inactive = higher.

Field: GI50 (SK-OV-3). Entry: Cn1cc(C(=O)c2ccccc2)cc(C(=O)c2ccccc2)c1=O
> 100 µM (inactive)

Field: GI50 (SK-OV-3). Entry: O=C(/C=C(\O)c1cc(-c2ccccc2)n(-c2ccccc2)n1)c1ccccc1
3.04 µM (inactive)

Field: GI50 (SK-OV-3). Entry: COc1ccc(C(=O)C(Br)C(Br)C(=O)O)cc1 (stereo not given)
33.7 µM (inactive)

Field: GI50 (SK-OV-3). Entry: COC(=O)c1c(C)ccc2c(O)c3c(cc12)C(=O)c1c2c(cc(O)c1C3=O)C1(C)OC(C)(O2)C(O)C(N(C)C)C1O (stereo not given)
3.33 µM (inactive)

Field: GI50 (SK-OV-3). Entry: COc1ccc(NC(=O)/C(=N/O)C(C)=O)cc1
> 100 µM (inactive)

* * *

System: HCT-15
measurement protocol: NCI tumour cell line growth inhibition, 48 h
value type: log10 GI50 (log10 of the value in µM)
Scale: log10; quantity: GI50; unit before log: µM

Field: log10 GI50 (HCT-15). Entry: CC/C(Cl)=N\OC(=O)Nc1ccccc1OC(F)(F)F
0.51

Field: log10 GI50 (HCT-15). Entry: COC(=O)c1c(C)ccc2c(O)c3c(cc12)C(=O)c1c2c(cc(O)c1C3=O)C1(C)OC(C)(O2)C(O)C(N(C)C)C1O (stereo not drawn)
0.16

Field: log10 GI50 (HCT-15). Entry: COC(=O)c1ccc2c(c1)CCN2C(=O)c1cc2c(cc1Br)OCO2
0.26

Field: log10 GI50 (HCT-15). Entry: CC(C)(C)c1ccc(O)c(C(O)c2cccnc2)c1 (stereo not drawn)
1.86

Field: log10 GI50 (HCT-15). Entry: O=C1c2cccnc2C(=O)C2C3C=CC(C3)C12 (stereo not drawn)
1.08

Field: log10 GI50 (HCT-15). Entry: Cc1ccc2c3c4c(ccc13)C(C)(C)OC4=C(C(C)C)C2=O
1.51

Field: log10 GI50 (HCT-15). Entry: CCOC(=O)C(NC(=O)Nc1ccc(Cl)cc1)(OC)C(F)(F)F (stereo not drawn)
-0.61

Field: log10 GI50 (HCT-15). Entry: CCNC(=O)NNc1ncnc2c1c(-c1ccc(Cl)cc1)cn2-c1ccc(C)cc1
1.31

Field: log10 GI50 (HCT-15). Entry: O=C1/C(=C/c2ccccc2O)N=C(c2ccccc2)N1c1nc2ccccc2s1
0.79

Field: log10 GI50 (HCT-15). Entry: COc1ccc(-c2[nH]c3c4c(nc5c(c24)C(=O)CC(C)(C)C5)CC(C)(C)C3)cc1
1.73

Field: log10 GI50 (HCT-15). Entry: O=C(O)C1CCCCC1c1c2ccc(=O)cc-2oc2cc(O)ccc12 (stereo not drawn)
1.54

Field: log10 GI50 (HCT-15). Entry: CON(C)C(=O)CNC(=O)OCC1c2ccccc2-c2ccccc21
1.89

Field: log10 GI50 (HCT-15). Entry: CCCCCCC(C)CC(CCCCCC)NCCOC(=O)c1ccc([N+](=O)[O-])cc1 (stereo not drawn)
1.00

Field: log10 GI50 (HCT-15). Entry: Cc1sc2nc(N(C)C)oc(=O)c2c1C
1.92

Field: log10 GI50 (HCT-15). Entry: COc1cc(/C=C2\CCC(C)c3c2nc(N)c(C#N)c3-c2cc(OC)c(OC)c(OC)c2)cc(OC)c1OC (stereo not drawn)
1.43

Field: log10 GI50 (HCT-15). Entry: O=c1[nH]c2c3ccccc3ccc2c2cc3c(cc12)OCO3
1.85

Field: log10 GI50 (HCT-15). Entry: CCOC(=O)c1ccc(N[C@@H]2c3cc4c(cc3C(c3cc(OC)c(O)c(OC)c3)[C@H]3C(=O)OCC32)OCO4)cc1O (stereo partly drawn)
0.04
